- Tested on: BT474 cells
- measurement.notes: BT-474 cell growth inhibition assay (SRB assay)
- Assay type: cell-based
- condition.context: Homo sapiens, concentration of 3 μM, 72 h, read-out: Inhibition Percent (%)
Consider the following compounds; for each one, report its inhibition at 3 µM.
Express your answer in %, writing the number without its unit.

Looking up CCOc1cc2ncc(C#N)c(Nc3ccc(F)c(Cl)c3)c2cc1NC(=O)C=C1CCN(CCOC)CC1 , I found its inhibition at 3 µM recorded as 59

Reported inhibition at 3 µM of COCCOc1cc2ncc(C#N)c(Nc3ccc(OCc4cccc(F)c4)c(Cl)c3)c2cc1NC(=O)C=C1CCNCC1 : 84

compound COCCOc1cc2ncc(C#N)c(Nc3ccc(OCc4cccc(F)c4)c(Cl)c3)c2cc1NC(=O)C=C1CCN(C)CC1 , inhibition at 3 µM observed: 83

* * *

- System: A431 cells
- measurement.notes: Cell growth inhibition assay (MTS assay), A431
- Format: cell-based
- condition.context: Homo sapiens, A-431; A431 cells; MTS, 48 hours; read-out: Growth inhibition activity EC50
pEC50: −log10 of the molar value.
Outcome: Y for pEC50 of at least 7; N for anything lower.

pEC50 >= 7 for COc1cc2ncnc(Nc3ccc(OCc4ccccn4)c(Cl)c3)c2cc1NC(=O)C=C1CCNCC1 ?
N

Hi team, for C#Cc1cccc(Nc2ncnc3ccc(NC(=O)C=C4CCN(CCOC)CC4)cc23)c1 , is the recorded pEC50 at or above 7?
N

Decide: pEC50 of COCCN1CCC(=CC(=O)Nc2cc3c(Nc4ccc(F)c(Cl)c4)ncnc3cc2OC)CC1 >= 7?
N

Quick check, pEC50 >= 7? COc1cc2ncnc(Nc3cccc(Br)c3)c2cc1NC(=O)C=C1CCNCC1
Y

Test whether the molecule C#Cc1cccc(Nc2ncnc3ccc(NC(=O)C=C4CCN(C)CC4)cc23)c1 records pEC50 of 7 or higher.
N

Is pEC50 for COCCN1CCC(=CC(=O)Nc2cc3c(Nc4ccc(OCc5ccccn5)c(Cl)c4)ncnc3cc2OC)CC1 at or above 7?
N

* * *

Assign inhibition at 3 µM to each entry below.
- study.system: A431 cells EGFR-TK phosphorylation stimulated by EGF (Homo sapiens, UniProt P00533)
- Construct: against A431 cells EGFR-TK; endogenous in cells; host or cells: A431 cells
- Sequence (P00533 25-1210): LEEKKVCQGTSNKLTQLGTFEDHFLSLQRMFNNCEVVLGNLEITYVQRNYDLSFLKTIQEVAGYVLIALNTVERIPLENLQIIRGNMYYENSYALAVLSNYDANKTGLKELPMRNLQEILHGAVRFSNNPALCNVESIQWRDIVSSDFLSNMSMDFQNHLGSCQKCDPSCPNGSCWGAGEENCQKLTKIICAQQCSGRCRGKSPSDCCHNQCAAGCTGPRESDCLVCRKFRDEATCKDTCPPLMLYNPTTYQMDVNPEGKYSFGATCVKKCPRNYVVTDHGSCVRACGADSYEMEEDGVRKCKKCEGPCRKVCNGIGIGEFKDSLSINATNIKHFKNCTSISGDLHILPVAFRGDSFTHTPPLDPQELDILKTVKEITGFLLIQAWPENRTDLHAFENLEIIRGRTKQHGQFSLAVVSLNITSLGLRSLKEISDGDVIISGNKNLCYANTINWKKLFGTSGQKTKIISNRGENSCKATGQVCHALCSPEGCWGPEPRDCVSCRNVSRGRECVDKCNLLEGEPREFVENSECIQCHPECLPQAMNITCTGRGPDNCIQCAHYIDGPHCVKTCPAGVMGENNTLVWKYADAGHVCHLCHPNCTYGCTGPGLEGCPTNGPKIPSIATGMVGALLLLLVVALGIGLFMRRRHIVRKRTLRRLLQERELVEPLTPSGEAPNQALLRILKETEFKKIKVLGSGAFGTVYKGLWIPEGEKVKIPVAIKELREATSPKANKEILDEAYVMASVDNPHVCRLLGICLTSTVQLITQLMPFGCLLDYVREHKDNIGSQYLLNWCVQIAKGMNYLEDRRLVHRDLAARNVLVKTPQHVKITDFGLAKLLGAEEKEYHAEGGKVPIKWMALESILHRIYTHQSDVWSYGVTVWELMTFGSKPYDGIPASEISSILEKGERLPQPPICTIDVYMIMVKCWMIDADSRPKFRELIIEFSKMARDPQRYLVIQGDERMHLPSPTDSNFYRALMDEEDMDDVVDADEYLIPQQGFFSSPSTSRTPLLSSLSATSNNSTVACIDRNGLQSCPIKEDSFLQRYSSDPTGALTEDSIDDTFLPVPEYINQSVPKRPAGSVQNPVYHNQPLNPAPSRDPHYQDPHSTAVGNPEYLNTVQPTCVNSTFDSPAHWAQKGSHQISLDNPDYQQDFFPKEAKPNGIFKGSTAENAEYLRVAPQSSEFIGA
- measurement.notes: Inhibition of cellular EGFR-TK phosphorylation stimulated by EGF in A431 cells
- Format: cell-based
- condition.context: A-431; concentration of 3 μM; A431 cells, EGF stimulated; one-time measurement at a single concentration (preliminary selection); NA = No activity; read-out: Inhibition Percent (%)
Param answer (str): number followed by unit.

Sure, the documented inhibition at 3 µM for O=C(C=C1CCNCC1)Nc1ccc2ncnc(Nc3ccccc3)c2c1 is 33%

inhibition at 3 µM recorded for this compound, CCOc1cc2ncc(C#N)c(Nc3ccc(OCc4ccccn4)c(Cl)c3)c2cc1NC(=O)C=C1CCNCC1 , is 96%

inhibition at 3 µM for C#Cc1cccc(Nc2ncnc3cc(OCCCOC)c(NC(=O)C=C4CCNCC4)cc23)c1 is 95%

inhibition at 3 µM in this record for O=C(C=C1CCNCC1)Nc1cc2c(Nc3cccc(Br)c3)ncnc2cc1OCCCN1CCOCC1 : 82%

Consider COCCN1CCC(=CC(=O)Nc2cc3c(Nc4ccc(OCc5ccccn5)c(Cl)c4)ncnc3cc2OC)CC1 . Its measured inhibition at 3 µM is 41%

// field: inhibition at 3 µM; key: COc1cc2ncc(C#N)c(Nc3ccc(OCc4cccc(F)c4)c(Cl)c3)c2cc1NC(=O)C=C1CCNCC1 ; value = 89%

Per the records, this compound ( COCCOc1cc2ncnc(Nc3cccc(Br)c3)c2cc1NC(=O)C=C1CCNCC1 ) has inhibition at 3 µM equal to 89%

inhibition at 3 µM for CCOc1cc2ncnc(Nc3ccc(OCc4ccccn4)c(Cl)c3)c2cc1NC(=O)C=C1CCNCC1 is 52%

Per the records, this compound ( COc1cc2ncnc(Nc3ccc(F)c(Cl)c3)c2cc1NC(=O)C=C1CCN(C)CC1 ) has inhibition at 3 µM equal to 97%

Summary for this compound, COc1cc2ncnc(Nc3ccc(OCc4cccc(F)c4)c(Cl)c3)c2cc1NC(=O)C=C1CCNCC1 : inhibition at 3 µM is 44%

inhibition at 3 µM measured on C#Cc1cccc(Nc2ncnc3ccc(NC(=O)C=C4CCN(C)CC4)cc23)c1 = 78%

Recorded result, COCCN1CCC(=CC(=O)Nc2cc3c(Nc4ccc(F)c(Cl)c4)ncnc3cc2OC)CC1 , inhibition at 3 µM: 82%

Measured inhibition at 3 µM of C[C@H](Nc1ncnc2ccc(NC(=O)C=C3CCNCC3)cc12)c1ccccc1 : 68%

Just so you know, measured inhibition at 3 µM for C#Cc1cccc(Nc2ncnc3ccc(NC(=O)C=C4CCN(Cc5ccccc5)CC4)cc23)c1 came out at 24%

Lookup result for O=C(C=C1CCNCC1)Nc1ccc2ncnc(Nc3ccc4[nH]ccc4c3)c2c1 ; measured inhibition at 3 µM: 71%

get_value(item= C#Cc1cccc(Nc2ncnc3ccc(NC(=O)C=C4CCNCC4)cc23)c1 , readout=inhibition at 3 µM) returns 85%

Reported inhibition at 3 µM of N#Cc1cnc2ccc(N)cc2c1Nc1cccc(Br)c1 : 59%

* * *

- study.system: A431 cells EGFR-TK phosphorylation stimulated by EGF (Homo sapiens)
- Construct: against A431 cells EGFR-TK; endogenous in cells; host or cells: A431 cells
- measurement.notes: Inhibition of cellular EGFR-TK phosphorylation stimulated by EGF in A431 cells
- Format: cell-based
- condition.context: A-431; concentration of 3 μM; A431 cells, EGF stimulated; one-time measurement at a single concentration (preliminary selection); NA = No activity; read-out: Inhibition Percent (%)
metric: inhibition at 3 µM (%)
# unit: % | format: bare number

Query C[C@@H](Nc1ncnc2ccc(NC(=O)C=C3CCNCC3)cc12)c1ccccc1 yields inhibition at 3 µM of 23

Input O=C(C=C1CCNCC1)Nc1cc2c(Nc3cccc(Cl)c3)ncnc2cc1F . Output inhibition at 3 µM: 55

Measured inhibition at 3 µM of COc1cc2ncnc(Nc3ccc(F)c(Cl)c3)c2cc1NC(=O)C=C1CCNCC1 : 91

Short answer for C#Cc1cccc(Nc2ncnc3ccc(NC(=O)C=C4CCN(CCOC)CC4)cc23)c1 : inhibition at 3 µM was 65

Measured inhibition at 3 µM of C#Cc1cccc(Nc2ncnc3ccc(NC(=O)C=C4CCN(CC)CC4)cc23)c1 : 73

Kindly note the recorded inhibition at 3 µM for C#Cc1cccc(Nc2ncnc3cc(OC)c(NC(=O)C=C4CCN(C)CC4)cc23)c1 , which is 94

Record COc1cc2ncnc(Nc3ccc(Oc4ccccc4)c(OC)c3)c2cc1NC(=O)C=C1CCNCC1 , field inhibition at 3 µM: 59

Kindly note the recorded inhibition at 3 µM for O=C(C=C1CCNCC1)Nc1ccc2ncnc(Nc3ccc(F)c(Cl)c3)c2c1 , which is 87

* * *

- study.system: A431 cells EGFR-TK phosphorylation stimulated by EGF (Homo sapiens, UniProt P00533)
- Construct: against A431 cells EGFR-TK; endogenous in cells; host or cells: A431 cells
- measurement.notes: Inhibition of cellular EGFR-TK phosphorylation stimulated by EGF in A431 cells
- Assay type: cell-based
- condition.context: A-431; concentration of 3 μM; A431 cells, EGF stimulated; one-time measurement at a single concentration (preliminary selection); NA = No activity; read-out: Inhibition Percent (%)
metric: inhibition at 3 µM

Given item COc1cc2ncnc(Nc3cccc(Br)c3)c2cc1NC(=O)C=C1CCNCC1 [Example 38] , the value recorded as its inhibition at 3 µM is 94%

Form field inhibition at 3 µM, entry CCOc1cc2ncc(C#N)c(Nc3ccc(F)c(Cl)c3)c2cc1NC(=O)C=C1CCNCC1 [Example 150] : 46%

Briefly, inhibition at 3 µM measured for O=C(C=C1CCNCC1)Nc1ccc2ncnc(Nc3cccc(Cl)c3)c2c1 [Example 36] : 57%

inhibition at 3 µM in this record for N#Cc1cnc2ccc(N)cc2c1Nc1ccc(F)c(Cl)c1 [Example 132] : 64%

Reported inhibition at 3 µM of O=C(C=C1CCNCC1)Nc1ccc2ncnc(Nc3cccc(Br)c3)c2c1 [Example 33] : 94%

COCCOc1cc2ncc(C#N)c(Nc3ccc(OCc4cccc(F)c4)c(Cl)c3)c2cc1N [Example 141] has a reported inhibition at 3 µM of 91%

* * *

- Test system: BT474 cells
- measurement.notes: BT-474 cell growth inhibition assay (SRB assay)
- Format: cell-based
- condition.context: Homo sapiens, concentration of 3 μM, 72 h, read-out: Inhibition Percent (%)
metric: inhibition at 3 µM (%)
Quick note: give the figure in %, leave out the unit.

response.value for CCOc1cc2ncc(C#N)c(Nc3ccc(OCc4cccc(F)c4)c(Cl)c3)c2cc1NC(=O)C=C1CCN(CCOC)CC1 (field: inhibition at 3 µM) = 87

C#Cc1cccc(Nc2c(C#N)cnc3cc(OCC)c(NC(=O)C=C4CCNCC4)cc23)c1 yielded inhibition at 3 µM of 59

Form: molecule = COCCOc1cc2ncc(C#N)c(Nc3ccc(OCc4cccc(F)c4)c(Cl)c3)c2cc1NC(=O)C=C1CCN(CCOC)CC1 ; inhibition at 3 µM = 81

Value of inhibition at 3 µM reported for the molecule COCCOc1cc2ncc(C#N)c(Nc3cccc(Br)c3)c2cc1NC(=O)C=C1CCNCC1 is 60

The molecule listed as CCOc1cc2ncc(C#N)c(Nc3ccc(F)c(Cl)c3)c2cc1NC(=O)C=C1CCNCC1 has a reported inhibition at 3 µM of 56

Measured inhibition at 3 µM of CCOc1cc2ncc(C#N)c(Nc3ccc(OCc4ccccn4)c(Cl)c3)c2cc1NC(=O)C=C1CCN(CC)CC1 : 87

Quick note, inhibition at 3 µM for COCCN1CCC(=CC(=O)Nc2cc3c(Nc4ccc(OCc5ccccn5)c(Cl)c4)c(C#N)cnc3cc2OC)CC1 landed at 86

COCCOc1cc2ncc(C#N)c(Nc3ccc(OCc4ccccn4)c(Cl)c3)c2cc1NC(=O)C=C1CCNCC1 has a reported inhibition at 3 µM of 87

Reported inhibition at 3 µM ( CCOc1cc2ncc(C#N)c(Nc3ccc(OCc4ccccn4)c(Cl)c3)c2cc1NC(=O)C=C1CCN(CCOC)CC1 ) = 90

Reported inhibition at 3 µM ( N#Cc1cnc2ccc(NC(=O)C=C3CCNCC3)cc2c1Nc1ccc(OCc2ccccn2)c(Cl)c1 ) = 85

# molecule CCOc1cc2ncc(C#N)c(Nc3ccc(OCc4cccc(F)c4)c(Cl)c3)c2cc1NC(=O)C=C1CCN(C)CC1 ; its inhibition at 3 µM = 91

Looking up CCN1CCC(=CC(=O)Nc2cc3c(Nc4ccc(OCc5ccccn5)c(Cl)c4)c(C#N)cnc3cc2OCCOC)CC1 , I found its inhibition at 3 µM recorded as 89

Value of measured inhibition at 3 µM for the entry C#Cc1cccc(Nc2c(C#N)cnc3cc(OCC)c(NC(=O)C=C4CCN(CCOC)CC4)cc23)c1 : 53

The recorded inhibition at 3 µM for entry C#Cc1cccc(Nc2c(C#N)cnc3cc(OCC)c(NC(=O)C=C4CCN(C)CC4)cc23)c1 equals 57

Noted for CCN1CCC(=CC(=O)Nc2cc3c(Nc4ccc(OCc5cccc(F)c5)c(Cl)c4)c(C#N)cnc3cc2OCCOC)CC1 : its inhibition at 3 µM reads 78
